target.desc: T1, human insulin receptor (HIR) (human, UniProt P06213 28-1382, limits assumed)
T1 construct: solubilized receptor from transfected cells
test.protocol: 125I-insulin competition, solubilized HIR
pKd: −log10 of the molar value. No end group written: not given here.

[
  {
    "binder": "XGSLDESFYDWFERQLGKK (not fully specified; N-terminal Lig′, linker 24, N-N dimer) [S362]",
    "pKd": 6.96
  },
  {
    "binder": "XGSLDESFYDWFERQLGKK (not fully specified; N-terminal Ald, linker 17, N-N dimer) [S374]",
    "pKd": 6.74
  },
  {
    "binder": "XGSLDESFYDWFERQLGKK (N-terminal Ald, linker 19, N-N dimer) [S376]",
    "pKd": 6.80
  },
  {
    "binder": "CGFHENFYDWFVRQVSKK (also: N-N dimer, two chains linked at Cys1, N-N dimer) [S170]",
    "pKd": 6.15
  },
  {
    "binder": "DWLQRNANFYDWFVAEL (not fully specified; C-terminal Lig′, linker 14) [S300]",
    "pKd": 7.30
  },
  {
    "binder": "EEDWLQRNANFYDWFVAELX (C-terminal Lig′ (printed LiG′), linker 23, C-C dimer) [S381]",
    "pKd": 6.92
  },
  {
    "binder": "GSLDESFYDWFERQLGKKX (not fully specified; C-terminal Lig′, linker 24, C-C dimer) [S361]",
    "pKd": 5.66
  }
]

All values here come from patent US6875741.
